System: HOP-62 NSCLC
Assay Summary: NCI tumour cell line growth inhibition, 48 h
Recorded Endpoint: TGI (µM)
Note: unit µM is implicit; provide only the numeric part.

Exercise: State its TGI: CC1C(OS(=O)(=O)c2ccc3[nH]c(=S)sc3c2)CC2C3(C)CCC2(C(C)C(=O)O)C(O)C13 (centres undefined)
Solution: 66.5

Exercise: Return TGI (reported value) for this molecule: C=C(C)c1nc(Oc2ccccc2)nc(Oc2ccccc2)n1
Solution: 25

Exercise: Could you please provide reported TGI for O=S(=O)(Nc1ccccc1)c1ccc(C2CC3(Cl)C(Cl)=C(Cl)C2(Cl)C3(Cl)Cl)cc1 (centres undefined) ? Thanks!
Solution: 5.93

Exercise: Kindly indicate its recorded TGI. Item: COC(=O)c1ccc(CCC2=CC(=O)C=CC2=O)cc1
Solution: 39.3

Exercise: // Input: CC1(c2ccc(Cl)cc2)C=C(c2ccc(Cl)cc2)C(C#N)=C(C(C#N)C#N)N1 (centres undefined) . Output its TGI only.
Solution: 31.9

Exercise: State its TGI for this molecule: CC1(C)CC2=NO[Se]3=C2C(=NO3)C1
Solution: 10.8

Exercise: Please supply the value of reported TGI for the item CC(C)CCCC(C)C1CCC2C3CC([N+](=O)[O-])=C4CC(O)CCC4(C)C3CCC12C (centres undefined)
Solution: 42.3
